Target: UniProtKB O43613
Assay: In vitro assay: intracellular calcium measurements (FLIPR), antagonistic activity
Details: CHO cells expressing human orexin-1 receptor, orexin-A agonist, geometric mean, read-out: IC50 Ox1
Parameter pIC50: see the listing below.
Interpret pIC50 as the negative base-10 log of the concentration measured in mol/L.

// solved cases for pIC50 follow
Cc1nc(C(=O)N2CC[C@H](C)[C@H]2c2nc3cc(C(F)(F)F)ccc3[nH]2)c(-c2ccc(F)c(F)c2)s1 [Ex. 4.143] : 7.62
CO[C@H]1CN(C(=O)c2nc(C)sc2-c2cccc(Cl)c2)C(C)(c2nc3c(C)cccc3[nH]2)C1 (stereo partly drawn) [Ex. 3.28] : 8.00

Param item: COc1ccc(-n2nccn2)c(C(=O)N2CCC[C@H]2c2nc3cccc(SC)c3[nH]2)c1F [Ex. 1.168] ; param system: UniProtKB O43613; output pIC50: 7.70

Recorded pIC50 for Cc1nc(C(=O)N2CC[C@H](C)[C@H]2c2nc3cccc(C)c3[nH]2)c(-c2ccccc2)s1 [Ex. 4.4] on UniProtKB O43613 was 7.96

Here Cc1nc(C(=O)N2CCC[C@@]2(C)c2nc3c(C)cccc3n2C)c(-c2cccc(Cl)c2)s1 [Ex. 7.5] was tested on UniProtKB O43613, and its pIC50 came to 8.05

Field pIC50 (UniProtKB O43613), entry COc1cc2nc([C@@H]3[C@@H](C)CCN3C(=O)c3ccccc3-c3ccc(C)cc3)[nH]c2cc1OC [Ex. 4.58] : 7.18

Known value: UniProtKB O43613 pIC50 of the compound Cc1ccc(-c2ccccn2)c(C(=O)N2CCC[C@@]2(C)c2nc3c(C)c(Cl)ccc3[nH]2)c1 [Ex. 5.215] equals 8.40

For the compound Cc1ccc(-c2ccccc2)c(C(=O)N2CCC[C@@]2(C)c2nc3c(C)c(Cl)ccc3[nH]2)c1 [Ex. 5.223] , the measured pIC50 on UniProtKB O43613 was 8.52

Query COc1ccc(-n2nccn2)c(C(=O)N2CC[C@H](C)[C@H]2c2nc3cc(C)c(C)cc3[nH]2)c1 [Ex. 4.84] on UniProtKB O43613; pIC50 returned: 8.10

Param item: C[C@@]1(c2nc3cc(C(F)(F)F)ccc3[nH]2)CCCN1C(=O)c1cc(Br)ccc1-c1ccccc1 [Ex. 5.262] ; param system: UniProtKB O43613; output pIC50: 6.95

Entry Cc1ccc2[nH]c([C@]3(C)CCCN3C(=O)c3ccccc3-c3ccc(F)cc3)nc2c1C [Ex. 5.122] under UniProtKB O43613 had pIC50 of 7.00

Note to self: pIC50 of CSc1ccc2nc([C@@H]3CCCN3C(=O)c3nc(C4CC4)sc3-c3ccccc3)[nH]c2c1 [Ex. 1.35] with UniProtKB O43613 was 6.93

Lab entry: UniProtKB O43613 assay, compound CSc1cccc2nc([C@@H]3CCCN3C(=O)c3cnc(C)nc3-c3ccc(C)c(C)c3)[nH]c12 [Ex. 1.85] , pIC50 = 8.30

The observed pIC50 for CSc1ccc2nc([C@@H]3CCCN3C(=O)c3cnc(C)nc3-c3ccc(C)c(C)c3)[nH]c2c1 [Ex. 1.55] when tested with UniProtKB O43613 stands at 7.46

COCCn1c([C@]2(C)CCCN2C(=O)c2cc(C)ccc2-c2cccc(C)c2)nc2cc(C)c(C)cc21 [Ex. 7.29] tested on UniProtKB O43613 gave pIC50: 7.64

---

Target: human orexin-1 receptor (Homo sapiens (Human))
Test: In vitro assay: intracellular calcium measurements (FLIPR), antagonistic activity
Settings: CHO cells expressing human orexin-1 receptor, orexin-A agonist, geometric mean, read-out: IC50 Ox1
property: IC50 (nM)
The response must be a number in nM with no trailing unit.

Documented IC50 of `C=C1C[C@@H](c2nc3c(C)c(Cl)ccc3[nH]2)N(C(=O)c2nc(C)sc2-c2ccccc2)C1` : 4

---

Biological target: human orexin-1 receptor (Homo sapiens (Human))
Assay: In vitro assay: intracellular calcium measurements (FLIPR), antagonistic activity
Details: CHO cells expressing human orexin-1 receptor, orexin-A agonist, geometric mean, read-out: IC50 Ox1
Reported IC50 values for a set of compounds
Just the number in µM, nothing appended.

Cc1c(Cl)ccc2[nH]c([C@]3(C)CCCN3C(=O)c3nc(-c4ccccc4Cl)sc3-c3ccc(F)cc3)nc12 [Ex. 5.256] : 0.013
CSc1cccc2nc([C@@H]3CCCN3C(=O)c3cncnc3-c3ccc(Cl)c(Cl)c3)[nH]c12 [Ex. 1.82] : 0.013
Cc1ccc(-c2ncccn2)c(C(=O)N2CC[C@H](C)[C@H]2c2nc3c(C)c(Cl)ccc3[nH]2)c1 [Ex. 4.178] : 0.007

For Cc1c(Cl)ccc2[nH]c([C@]3(C)CCCN3C(=O)c3cc(C(F)(F)F)ccc3-n3nccn3)nc12 [Ex. 5.40] on human orexin-1 receptor (Homo sapiens (Human)), measured IC50 was 0.044

Item Cc1nc(C(=O)N2CC[C@H](C)[C@H]2c2nc3cc(C(F)(F)F)ccc3[nH]2)c(-c2ccc(F)cc2)s1 [Ex. 4.136] was tested on human orexin-1 receptor (Homo sapiens (Human)); the reported IC50 is 0.014

Item CSc1cccc2nc([C@@H]3CCCN3C(=O)c3cc(Cl)ccc3-n3nccn3)[nH]c12 [Ex. 1.165] was tested on human orexin-1 receptor (Homo sapiens (Human)); the reported IC50 is 0.076

Fill in: human orexin-1 receptor (Homo sapiens (Human)) IC50 for C=C1C[C@@H](c2nc3cccc(C)c3[nH]2)N(C(=O)c2cc(OC)ccc2-n2nccn2)C1 [Ex. 6.111] = 0.272

// returns IC50 for COc1cc(C(=O)N2CCC[C@@]2(C)c2nc3cc(C(F)(F)F)ccc3[nH]2)c(-n2nccn2)cc1OC [Ex. 5.174] with human orexin-1 receptor (Homo sapiens (Human)); value = 0.059

Assay human orexin-1 receptor (Homo sapiens (Human)), sample COc1ccc(-c2cccc(C)c2)c(C(=O)N2CCC[C@@]2(C)c2nc3ccc(Cl)c(C)c3[nH]2)c1F [Ex. 5.301] , IC50 read: 0.024

---

Molecular target: human orexin-1 receptor (Homo sapiens (Human), UniProt O43613)
Sequence (O43613 whole entry): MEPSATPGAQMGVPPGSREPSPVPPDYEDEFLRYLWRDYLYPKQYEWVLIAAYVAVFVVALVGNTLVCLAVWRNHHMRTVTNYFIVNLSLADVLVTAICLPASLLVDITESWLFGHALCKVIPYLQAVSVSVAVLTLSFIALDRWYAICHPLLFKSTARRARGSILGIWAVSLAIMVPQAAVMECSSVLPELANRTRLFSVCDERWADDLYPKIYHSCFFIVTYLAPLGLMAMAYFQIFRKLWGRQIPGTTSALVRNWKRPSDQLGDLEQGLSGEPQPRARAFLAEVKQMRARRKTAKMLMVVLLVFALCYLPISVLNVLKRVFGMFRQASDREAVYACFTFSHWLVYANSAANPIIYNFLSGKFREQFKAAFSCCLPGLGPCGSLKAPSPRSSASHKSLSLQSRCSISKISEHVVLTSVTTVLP
Test: In vitro assay: intracellular calcium measurements (FLIPR), antagonistic activity
Settings: CHO cells expressing human orexin-1 receptor, orexin-A agonist, geometric mean, read-out: IC50 Ox1
property: log10 IC50 (log10 of the value in nM)
Kindly note that the scale is log10 and the underlying IC50 is in nM.

Cc1ccc(-c2nc(C(=O)N3CCC[C@@]3(C)c3nc4cc(Cl)c(C(F)(F)F)cc4[nH]3)c(-c3ccc(F)cc3)s2)cc1 [Ex. 5.288] : 1.58
COc1cc2nc(C3CCCN3C(=O)c3nc(C)sc3-c3cccc(Cl)c3)[nH]c2cc1OC (stereo not drawn) [Ex. 1.110] : 2.21
COc1ccc2nc([C@@H]3C[C@@H](OC)CN3C(=O)c3cc(C)c(C)cc3-n3nccn3)[nH]c2c1 [Ex. 3.22] : 2.76
C=C1CC(c2nc3c(Br)cccc3[nH]2)N(C(=O)c2cc(C)sc2-c2ccc(C)c(C)c2)C1 (stereo not drawn) [Ex. 6.78] : 0.70
C=C1C[C@@H](c2nc3cc(OC)ccc3[nH]2)N(C(=O)c2cc(C)ccc2-n2nccn2)C1 [Ex. 6.12] : 2.50

Record Cc1ccc(C(=O)N2CCC[C@@]2(C)c2nc3cc(C(F)(F)F)ccc3[nH]2)c(-n2nccn2)c1 [Ex. 5.171] . Reported log10 IC50: 1.08

Summary for this compound, C=C1C[C@@H](c2nc3cccc(C)c3[nH]2)N(C(=O)c2nc(C)sc2-c2cccc(OC)c2)C1 [Ex. 6.114] : log10 IC50 is 1.20

Please fill in: log10 IC50 reported for C=C1C[C@@H](c2nc3ccc(Cl)c(C)c3[nH]2)N(C(=O)c2nc(C)sc2-c2ccc(F)cc2)C1 [Ex. 6.118] = 1.32

get_value(item= C=C1C[C@@H](c2nc3cc(C(C)(C)C)ccc3[nH]2)N(C(=O)c2c(-n3nccn3)ccc(C)c2F)C1 [Ex. 6.164] , readout=log10 IC50) returns 2.00

Memo: COc1ccc(-n2nccn2)c(C(=O)N2CC[C@H](C)[C@H]2c2nc3cc(Cl)c(C)cc3[nH]2)c1 [Ex. 4.74] , reported log10 IC50: 0.60

Entry Cc1ccc(-c2ccc3c(c2)OCO3)c(C(=O)N2CCC[C@@]2(C)c2nc3cc(C(F)(F)F)ccc3[nH]2)c1 [Ex. 5.198] — recorded log10 IC50 = 1.26

log10 IC50 for Cc1cc(Cl)cc2[nH]c([C@@H]3[C@@H](C)CCN3C(=O)c3cc(Cl)ccc3-n3nccn3)nc12 [Ex. 4.91] is 1.23

Record COc1cccc2nc([C@@H]3CCCN3C(=O)c3cc(C)ccc3-n3nccn3)[nH]c12 [Ex. 1.4] . Reported log10 IC50: 2.38

Form field log10 IC50, entry C=C1C[C@@H](c2nc3cc(C(C)(C)C)ccc3[nH]2)N(C(=O)c2nc(C)ccc2-n2cccn2)C1 [Ex. 6.173] : 2.93

Just so you know, measured log10 IC50 for C=C1C[C@@H](c2nc3ccc(OC)cc3[nH]2)N(C(=O)c2nc(C)sc2-c2ccc(F)cc2)C1 [Example 6.1] came out at 2.56
